Hey, just so you know, these numbers are from ChEMBL document CHEMBL1124636.

# Test system: Cysteinyl leukotriene receptor (Cavia porcellus)
# Protocol: Inhibitory activity to block binding of [3H]leukotriene D4 to Cysteinyl leukotriene D4 receptor sites in homogenized guinea pig lung at 10 uM
Documented inhibition across a set of compounds

{"Compound": "CCCc1c(OCc2cccc(COc3cc4c(cc3C(C)=O)CCC(C(=O)O)O4)c2)ccc(C(C)=O)c1O (centres undefined)", "inhibition [%]": 60}
{"Compound": "CCCc1c(OCCCCCOc2cc3c(cc2C(C)=O)CC(C(=O)O)O3)ccc(C(C)=O)c1O (centres undefined)", "inhibition [%]": 12}
{"Compound": "CCCc1c(OCCCCCOc2cc3c(cc2Br)CCC(C(=O)O)O3)ccc(C(C)=O)c1O (centres undefined)", "inhibition [%]": 57}
{"Compound": "CCCc1c(OCCCCCCOc2cc3c(cc2C(C)=O)CCC(C(=O)O)O3)ccc(C(C)=O)c1O (centres undefined)", "inhibition [%]": 96}
{"Compound": "CCCc1c(OCCOCCOc2cc3c(cc2C(C)=O)CCC(C(=O)O)O3)ccc(C(C)=O)c1O (centres undefined)", "inhibition [%]": 8}
{"Compound": "CCCc1c(OCCCCOc2cc3c(cc2C(C)=O)CCC(C(=O)O)O3)ccc(C(C)=O)c1O (centres undefined)", "inhibition [%]": 26}
{"Compound": "CCCc1c(OCCCCCOc2ccc3c(c2)OC(C(=O)O)CC3)ccc(C(C)=O)c1O (centres undefined)", "inhibition [%]": 11}
{"Compound": "CCCc1c(O)c(C(C)=O)cc(Cl)c1OCCCCCOc1cc2c(cc1C(C)=O)CCC(C(=O)O)O2 (centres undefined)", "inhibition [%]": 47}
{"Compound": "CCCc1c(OCCCOc2cc3c(cc2C(C)=O)CCC(C(=O)O)O3)ccc(C(C)=O)c1O (centres undefined)", "inhibition [%]": 63}

###

# Lookup of reported inhibition keyed by entry
# System: Cysteinyl leukotriene receptor (Cavia porcellus)
# Protocol: Inhibitory activity to block binding of [3H]leukotriene D4 to LTD4 receptor sites in homogenized guinea pig lung at 10 uM
Property Label: inhibition (%)

{"Molecule": "CC(=O)c1ccc(OCCCCCOc2cc3c(cc2C(C)=O)CCC(C(=O)O)O3)cc1O (stereo not given)", "Result Value": 0}
{"Molecule": "CCCc1c(OCCCCCOc2cc(OCC(=O)O)ccc2C(C)=O)ccc(C(C)=O)c1O", "Result Value": 65}
{"Molecule": "CCCc1c(OCCCCCOc2cc3c(cc2C(C)=O)CCC(CCCCC(=O)O)O3)ccc(C(C)=O)c1O (stereo not given)", "Result Value": 47}
{"Molecule": "CCCc1c(OCCCCCOc2cc3c(cc2C(C)=O)CCC2(CCC(C(=O)O)CC2)O3)ccc(C(C)=O)c1O (stereo not given)", "Result Value": 81}
{"Molecule": "CCCc1c(OCCCCCOc2cc3c(cc2C(C)=O)CCC(C)(C(=O)O)O3)ccc(C(C)=O)c1O (stereo not given)", "Result Value": 64}
{"Molecule": "CCCc1c(OCCCCCOc2cc3c(cc2C(C)=O)CCC(CCC(=O)O)O3)ccc(C(C)=O)c1O (stereo not given)", "Result Value": 94}
{"Molecule": "CCCc1c(OCCCCCOc2cc3c(cc2Cl)CCC(C(=O)O)O3)ccc(C(C)=O)c1O (stereo not given)", "Result Value": 45}
{"Molecule": "CCCc1c(OCCCOc2c(C)c(C)c3c(c2C)CCC(C)(C(=O)O)O3)ccc(C(C)=O)c1O (stereo not given)", "Result Value": 88}
{"Molecule": "CCCc1c(OCCCCCOc2cc3c(cc2C(C)=O)CCC(C(=O)NS(=O)(=O)c2ccccc2)O3)ccc(C(C)=O)c1O (stereo not given)", "Result Value": 87}
{"Molecule": "COc1cc(C(=O)NS(=O)(=O)c2ccccc2)ccc1Cn1ncc2ccc(NC(=O)OC3CCCC3)cc21", "Result Value": 98}
{"Molecule": "CCCc1c(OCCCCCOc2cc3c(cc2C(C)=O)CCC(c2nnn[nH]2)O3)ccc(C(C)=O)c1O (stereo not given)", "Result Value": 60}
{"Molecule": "CCCc1c(OCCCCCOc2cc3c(cc2[N+](=O)[O-])CCC(C(=O)O)O3)ccc(C(C)=O)c1O (stereo not given)", "Result Value": 48}
{"Molecule": "CCCc1c(OCCCOc2cc(NC(=O)c3nn[nH]n3)c(C)cc2Cl)ccc(C(C)=O)c1O", "Result Value": 94}
{"Molecule": "CCCc1c(OCCCCCOc2ccc3c(c2C(C)=O)OC(C(=O)O)CC3)ccc(C(C)=O)c1O (stereo not given)", "Result Value": 72}
{"Molecule": "CCCc1c(OCCC(C)(C)CCOc2cc3c(cc2C(C)=O)CCC(C(=O)O)O3)ccc(C(C)=O)c1O (stereo not given)", "Result Value": 68}

###

Here, each record is paired with measured IC50 data.
# Test system: Cavia porcellus
# Protocol: Inhibition of leukotriene D4 induced bronchoconstriction in anesthetized guinea pigs after aerosol administration as 1% solution
# Format: functional, organism-based

{"Compound": "CCCc1c(OCCCCCOc2cc(OCC(=O)O)ccc2C(C)=O)ccc(C(C)=O)c1O", "IC50 (% conc)": 1}
{"Compound": "CCCc1c(OCCCCCOc2cc3c(cc2C(=O)CC)CCC(C(=O)O)O3)ccc(C(C)=O)c1O (centres undefined)", "IC50 (% conc)": 0.3}
{"Compound": "CCCc1c(OCCCCCOc2cc3c(cc2C(C)=O)CC(C(=O)O)O3)ccc(C(C)=O)c1O (centres undefined)", "IC50 (% conc)": 0.04}
{"Compound": "CCCc1c(OCCCCCOc2cc3c(cc2C(C)=O)CCC(C)(C(=O)O)O3)ccc(C(C)=O)c1O (centres undefined)", "IC50 (% conc)": 0.2}
{"Compound": "CCCc1c(OCCCS(=O)(=O)c2ccc(C(=O)CCC(=O)O)cc2)ccc(C(C)=O)c1O", "IC50 (% conc)": 0.7}
{"Compound": "CCCc1c(OCCCCCOc2cc3c(cc2C(C)=O)CCC(C(=O)NS(=O)(=O)c2ccccc2)O3)ccc(C(C)=O)c1O (centres undefined)", "IC50 (% conc)": 1}
{"Compound": "CCCc1c(OCCCCCOc2cc3c(cc2C(C)=O)CCC(CCC)(C(=O)O)O3)ccc(C(C)=O)c1O (centres undefined)", "IC50 (% conc)": 0.9}
{"Compound": "COc1cc(C(=O)NS(=O)(=O)c2ccccc2)ccc1Cn1ncc2ccc(NC(=O)OC3CCCC3)cc21", "IC50 (% conc)": 0.006}
{"Compound": "CCCc1c(OCCCCCCc2cc3c(cc2C(C)=O)CCC(C(=O)O)O3)ccc(C(C)=O)c1O (centres undefined)", "IC50 (% conc)": 0.3}
{"Compound": "CCCc1c(OCCCCCOc2ccc3c(c2)OC(C(=O)O)CC3)ccc(C(C)=O)c1O (centres undefined)", "IC50 (% conc)": 1}
{"Compound": "CCCc1c(OCCCCCOc2cc3c(cc2C(C)=O)CCC(C(=O)O)O3)ccc(C(C)=O)c1O (centres undefined)", "IC50 (% conc)": 0.007}
{"Compound": "CCCc1c(OCC(O)COc2ccc3c(=O)cc(C(=O)O)oc3c2CCC)ccc(C(C)=O)c1O (centres undefined)", "IC50 (% conc)": 0.5}
{"Compound": "CCCc1c(OCCCCc2nnn[nH]2)ccc(C(C)=O)c1O", "IC50 (% conc)": 0.4}
{"Compound": "CCCc1c(OCCCCCOc2cc3c(cc2C(C)=O)CCC2(CCC(C(=O)O)CC2)O3)ccc(C(C)=O)c1O (centres undefined)", "IC50 (% conc)": 0.08}

###

# Test system: Cavia porcellus
# Protocol: In vivo guinea pig bronchoconstriction against leukotriene D4 when administered a compound dose (mg/kg) intravenously
# Type: functional
# Details: Lung, iv, read-out: ID50 (the source's name)

{"Compound": "CCCc1c(OCC(O)COc2ccc3c(=O)cc(C(=O)O)oc3c2CCC)ccc(C(C)=O)c1O (centres undefined)", "ED50": "2 mg/kg"}
{"Compound": "CCCc1c(OCCCCCOc2cc3c(cc2C(C)=O)CCC(C(=O)O)O3)ccc(C(C)=O)c1O (centres undefined)", "ED50": "5 mg/kg"}
{"Compound": "CCCc1c(OCCCCCOc2cc3c(cc2C(C)=O)CC[C@H](C(=O)O)O3)ccc(C(C)=O)c1O", "ED50": "4 mg/kg"}
{"Compound": "CCCc1c(OCCCCCOc2cc3c(cc2C(C)=O)CC[C@@H](C(=O)O)O3)ccc(C(C)=O)c1O", "ED50": "3 mg/kg"}

###

Quick reference: ED50 of the listed items.
# Test system: Cavia porcellus
# Protocol: In vivo guinea pig bronchoconstriction against leukotriene C4 when administered a compound dose (mg/kg) intravenously
# Format: functional
# Details: Lung, iv, read-out: ID50 (the source's name)
Property Label: ED50 (mg/kg)

{"Molecule": "CCCc1c(OCCCCCOc2cc3c(cc2C(C)=O)CC[C@@H](C(=O)O)O3)ccc(C(C)=O)c1O", "Unit Text": "mg/kg", "Result Value": 4}
{"Molecule": "CCCc1c(OCC(O)COc2ccc3c(=O)cc(C(=O)O)oc3c2CCC)ccc(C(C)=O)c1O (centres undefined)", "Unit Text": "mg/kg", "Result Value": 6}
{"Molecule": "CCCc1c(OCCCCCOc2cc3c(cc2C(C)=O)CCC(C(=O)O)O3)ccc(C(C)=O)c1O (centres undefined)", "Unit Text": "mg/kg", "Result Value": 3}
{"Molecule": "CCCc1c(OCCCCCOc2cc3c(cc2C(C)=O)CC[C@H](C(=O)O)O3)ccc(C(C)=O)c1O", "Unit Text": "mg/kg", "Result Value": 6}
